- ASSAY_COMMENT: Toxicity against mouse BV2 cells assessed as effect on cell viability at 80 uM incubated for 24 hrs by MTT assay
- Type: cell-based
- EXPERIMENTAL_CONTEXT: bv-2, 24 h
EXPERIMENTAL_READOUT: Activity

CC(=O)OCCC(C)(O)CCC1=C(C)C(=O)[C@@H](OC(C)=O)[C@H]2[C@@](C)(COC(C)=O)[C@H](OC(C)=O)CC[C@]12C (stereo partly drawn) :: Non-toxic
CC(=O)OCC[C@]1(C)CC[C@@]2(O1)[C@H](C)C(=O)[C@@H](OC(C)=O)[C@H]1[C@@](C)(COC(C)=O)[C@H](OC(C)=O)CC[C@@]12C :: Non-toxic
CC(=O)OCC[C@]1(C)CC[C@@]2(O1)[C@H](C)C(=O)[C@@H](O)[C@H]1[C@@](C)(COC(C)=O)[C@H](O)CC[C@@]12C :: Non-toxic
